- Test system: UACC-62 melanoma
- method: NCI tumour cell line growth inhibition, 48 h
Give TGI for every item shown.
Only the number, expressed in µM, is required.

Give reported TGI value for O=C1c2cccc3cc([N+](=O)[O-])cc(c23)C(=O)N1CCN1CCCC1 1.71

Please give measured TGI of the following entry: O=C1CCC2=C3C4CCCCC4C(=O)C4CCCC(OC2C1)C34 (configuration not stated) 4.32

Find the measured TGI of CCOC(=O)c1c(C)[nH]c(/C=C2\N=C(c3ccc[nH]3)C=C2OC)c1C and report it. 0.0904

Give the reported value of TGI for this record: CN(C1=NS(=O)(=O)N=C(N(C)c2ccccc2)O1)c1ccccc1 28

Given the molecule CCCCNC(=O)Oc1ccc2c(=O)c3sc4c(=O)c5ccccc5c(=O)c4c3c(=O)c2c1 , write its reported TGI. 0.336
